// ΔSPQ (difference between maximum and minimum SPQ values) lookup, one value per entry
EXPERIMENTAL_TARGET: delF508-CFTR (Homo sapiens, UniProt P13569, DEL508-508)
Construct: endogenous in cells; host or cells: CFBE41o- human CF bronchial epithelial cells (delF508 homozygous)
Sequence (P13569 with tags, fused parts or gaps DEL508-508): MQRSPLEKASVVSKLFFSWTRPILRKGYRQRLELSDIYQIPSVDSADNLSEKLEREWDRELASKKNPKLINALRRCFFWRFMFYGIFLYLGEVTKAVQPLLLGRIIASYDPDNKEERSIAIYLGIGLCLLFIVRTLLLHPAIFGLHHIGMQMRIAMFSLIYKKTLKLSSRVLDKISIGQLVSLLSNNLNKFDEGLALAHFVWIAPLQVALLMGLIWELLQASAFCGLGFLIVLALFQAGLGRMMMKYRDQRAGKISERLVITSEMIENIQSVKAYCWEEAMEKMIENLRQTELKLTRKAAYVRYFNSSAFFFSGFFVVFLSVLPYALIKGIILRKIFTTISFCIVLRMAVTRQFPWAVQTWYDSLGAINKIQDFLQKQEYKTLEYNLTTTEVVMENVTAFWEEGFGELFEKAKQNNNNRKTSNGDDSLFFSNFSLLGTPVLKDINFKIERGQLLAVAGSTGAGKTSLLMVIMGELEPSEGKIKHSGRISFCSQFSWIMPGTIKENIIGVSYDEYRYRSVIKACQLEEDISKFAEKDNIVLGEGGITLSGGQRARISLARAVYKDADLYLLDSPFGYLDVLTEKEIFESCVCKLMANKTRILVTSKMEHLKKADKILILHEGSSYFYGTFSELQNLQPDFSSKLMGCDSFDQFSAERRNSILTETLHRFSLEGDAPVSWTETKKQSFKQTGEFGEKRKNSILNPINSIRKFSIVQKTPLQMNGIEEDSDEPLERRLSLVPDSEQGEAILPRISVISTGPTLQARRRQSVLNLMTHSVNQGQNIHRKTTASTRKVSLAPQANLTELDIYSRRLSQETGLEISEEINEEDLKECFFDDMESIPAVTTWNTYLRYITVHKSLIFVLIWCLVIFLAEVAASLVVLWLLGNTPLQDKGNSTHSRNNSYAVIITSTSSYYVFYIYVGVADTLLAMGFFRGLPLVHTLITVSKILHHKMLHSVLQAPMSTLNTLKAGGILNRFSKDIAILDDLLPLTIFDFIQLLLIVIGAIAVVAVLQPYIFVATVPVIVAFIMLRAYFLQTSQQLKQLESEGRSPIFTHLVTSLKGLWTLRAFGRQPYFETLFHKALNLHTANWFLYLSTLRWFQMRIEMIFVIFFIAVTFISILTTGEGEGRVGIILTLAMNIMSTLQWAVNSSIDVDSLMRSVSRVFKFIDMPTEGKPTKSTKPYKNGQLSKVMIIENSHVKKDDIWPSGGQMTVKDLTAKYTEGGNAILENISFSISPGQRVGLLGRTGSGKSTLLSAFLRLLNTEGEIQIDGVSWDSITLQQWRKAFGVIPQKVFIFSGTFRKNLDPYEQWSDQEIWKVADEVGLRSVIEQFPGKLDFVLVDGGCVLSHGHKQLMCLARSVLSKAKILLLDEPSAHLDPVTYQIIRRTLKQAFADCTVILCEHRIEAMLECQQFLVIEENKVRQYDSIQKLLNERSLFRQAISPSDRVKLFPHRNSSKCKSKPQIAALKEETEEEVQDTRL
PROTOCOL: SPQ halide-sensitive fluorescence dye assay for rescue of halide efflux (8-point concentration-response)
Type: cell-based
TEST_SETTINGS: CFBE41o- cells, 48 h
// return numeric value only (unit: RFU, not printed)

Sample answers from the record:
CCOC(=O)C1CCCN(c2nc3c(c(=O)n(C)c(=O)n3C)n2CC)C1 (stereo not shown) [III-5] = 4528
CCC(C)n1c(C)c(C)n2c3c(=O)n(CC)c(=O)n(C)c3nc12 (stereo not shown) [Compound I-58] = 3361
CCC(C)n1c(C)c(C)n2c3c(=O)n(CC(=O)OC)c(=O)n(C)c3nc12 (stereo not shown) [Compound I-49] = 9652

Moving on to another compound below.
[ask] Request - read-out ΔSPQ (difference between maximum and minimum SPQ values) | tested on delF508-CFTR (Homo sapiens, UniProt P13569, DEL508-508) | compound CCn1c(=O)c2c(nc3n(-c4cccc(OC)c4)c(C)c(C)n23)n(C)c1=O [Compound I-29]
[reply] 10298

====

EXPERIMENTAL_TARGET: delF508-CFTR (Homo sapiens, UniProt P13569, DEL508-508)
Construct: endogenous in cells; host or cells: CFBE41o- human CF bronchial epithelial cells (delF508 homozygous)
PROTOCOL: SPQ halide-sensitive fluorescence dye assay for rescue of halide efflux (8-point concentration-response)
Format: cell-based
TEST_SETTINGS: CFBE41o- cells, 48 h; read-out: SPQ EC50
// EC50 lookup, one value per entry

Sample answers from the record:
CCn1c(=O)c2c(nc3n2C(C)C(C)=NN3CCC(C)C)n(C)c1=O (stereo not drawn) = > 30 µM
CCCN1N=C(C)Cn2c1nc1c2c(=O)n(CCC)c(=O)n1C = > 30 µM

Moving on to another molecule below.
[ask] Which EC50 is reported for this molecule? C=C(C)CN1N=C(C)C(C)n2c1nc1c2c(=O)n(C/C=C/C)c(=O)n1C (stereo not drawn)
[reply] > 30 µM

====

EXPERIMENTAL_TARGET: delF508-CFTR (Homo sapiens, UniProt P13569, DEL508-508)
Construct: endogenous in cells; host or cells: CFBE41o- human CF bronchial epithelial cells (delF508 homozygous)
PROTOCOL: SPQ halide-sensitive fluorescence dye assay for rescue of halide efflux (8-point concentration-response)
Format: cell-based
TEST_SETTINGS: CFBE41o- cells, 48 h; read-out: SPQ EC50
Procedure: The method of profiling can include detecting the rescue of halide efflux from a cell. The step of detecting a rescue of halide efflux from the cell can be monitored using the halide quenched dye 6-methoxy-N-(3-sulfopropyl)-quinolinium (SPQ, Molecular Probes Inc., Eugene, Oreg.). In this method, cells are treated with a compound as described herein for a period of time (e.g., 48 hours). The rescue or correction of halide efflux is then detected using the SPQ assay with the halide dye. […]
Please assign NO whenever EC50 is at or above 7 µM, and YES whenever it is below.

Check out these entries, answers already filled in.
CCn1c(=O)c2c(nc3n2CCN3Cc2ccco2)n(C)c1=O = NO
CCCn1c(=O)c2c(nc3n(CC(C)C)c(C)c(C)n23)n(C)c1=O = NO
C=CCn1c(=O)c2c(nc3n2CC(C)=NN3Cc2ccccc2)n(C)c1=O = NO
Cn1c(=O)c2nc(N3CCN(c4ccccn4)CC3)[nH]c2n(C)c1=O = NO
CCn1c(=O)c2c(nc3n(C(C)c4ccccc4)c(C)cn23)n(C)c1=O (stereo not shown) = NO

[ask] Answer whether the compound `C=CCN1N=C(C)Cn2c1nc1c2c(=O)n(CCCC)c(=O)n1C` has EC50 strictly less than 7 µM
[reply] NO

[ask] Answer whether the compound `Cn1c(=O)c2[nH]c(N3CCN(c4ccccc4O)CC3)nc2n(C)c1=O` has EC50 strictly less than 7 µM
[reply] YES

[ask] Answer whether the compound `CC1=NNc2nc3c(c(=O)n(CCCc4ccccc4)c(=O)n3C)n2C1` has EC50 strictly less than 7 µM
[reply] NO

[ask] Answer whether the compound `COc1ccc(CN2CCN(c3nc4c(=O)n(C)c(=O)n(C)c4[nH]3)CC2)cc1OC` has EC50 strictly less than 7 µM
[reply] NO
